Settings: amide bond; 42-membered ring; NaNO2; MPAA (NCL); TCEP; then NH4HCO3 air oxidation; 6 M guanidinium chloride buffer; 1.0 mM; 25.0 °C; 2 steps
endpoint: ring closure, yield after HPLC (%)
Answers are plain numbers, in %.

Some solved cases for reference:
GSCTRSSPPECWPN    9
GYCTRSSPPECWPN    12
GFCHRSYPPECWPN    6

# next sequence below
Which measured ring closure, yield after HPLC value corresponds to GFCTRSNPPECWPN ?
8
